Every entry's value here was drawn from patent US20110312941A1.

Measured Ki, listed per entry for reference.
- target_system: cloned human V1a receptor (Homo sapiens, UniProt P37288)
- Construct: host or cells: human brain astrocytoma 1321N1 cells
- Sequence (P37288 whole entry): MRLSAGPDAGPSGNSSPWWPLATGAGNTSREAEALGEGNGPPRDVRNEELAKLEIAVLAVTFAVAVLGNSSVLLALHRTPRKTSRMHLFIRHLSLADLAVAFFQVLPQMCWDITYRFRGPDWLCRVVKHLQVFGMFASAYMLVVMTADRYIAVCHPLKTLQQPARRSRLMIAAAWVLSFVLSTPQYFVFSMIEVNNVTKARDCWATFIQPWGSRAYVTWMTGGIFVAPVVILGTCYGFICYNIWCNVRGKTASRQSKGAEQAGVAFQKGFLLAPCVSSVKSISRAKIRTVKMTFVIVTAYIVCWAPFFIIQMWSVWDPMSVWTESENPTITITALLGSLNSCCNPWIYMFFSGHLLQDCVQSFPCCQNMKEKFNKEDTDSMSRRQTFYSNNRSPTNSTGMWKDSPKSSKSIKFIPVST
- procedure_summary: in vitro functional calcium mobilisation assay (FLIPR), antagonist activity, 1321N1 cells, 250 pM AVP
- Assay type: cell-based
- condition_parameters: functional pKi derived from pIC50 (Equation 1), FLIPR Ca2+ mobilisation, 1321N1 cells expressing cloned human V1a receptor, read-out: Mean fpKi (Human V1a) (converted)
quantity_name: Ki (nM)

INSERT INTO measurements (smiles_code, value) VALUES
  ('O=C(C1CCN(c2ccccn2)CC1)N1Cc2cccn2Cc2ccccc21', 3.16),
  ('Cn1ncc2c1Nc1cc(Cl)ccc1N(C(=O)C1CCN(c3ccccn3)CC1)C2', 6.92),
  ('O=C(C1CCN(c2ccccn2)CC1)N1CCc2nc(-c3ccccc3F)[nH]c2-c2cc(Cl)ccc21', 75.9),
  ('O=C(C1CCN(c2cccc(F)c2)CC1)N1Cc2cccn2Cc2ccccc21', 4.57);
